pKd: −log10 of the molar value.
List of pKd tested on RXRα (Homo sapiens).
Sequence (P19793 whole entry): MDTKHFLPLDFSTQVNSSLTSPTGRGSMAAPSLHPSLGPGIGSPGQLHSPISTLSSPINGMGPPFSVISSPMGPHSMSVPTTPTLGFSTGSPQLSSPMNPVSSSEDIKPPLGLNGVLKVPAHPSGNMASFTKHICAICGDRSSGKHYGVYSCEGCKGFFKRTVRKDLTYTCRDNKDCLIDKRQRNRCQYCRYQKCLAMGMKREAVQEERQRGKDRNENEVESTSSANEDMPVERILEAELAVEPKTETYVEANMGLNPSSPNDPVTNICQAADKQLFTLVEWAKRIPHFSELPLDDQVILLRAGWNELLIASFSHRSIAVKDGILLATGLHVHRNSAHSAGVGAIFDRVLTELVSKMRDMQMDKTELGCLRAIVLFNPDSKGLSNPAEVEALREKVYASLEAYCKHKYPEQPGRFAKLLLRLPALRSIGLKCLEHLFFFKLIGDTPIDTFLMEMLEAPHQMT

Smiles Entry	Target Under Test	pKd
CC(/C=C/CC1(c2ccc3c(c2)C(C)(C)CCC3(C)C)CCCC1)=C\C(=O)O	RXRα (Homo sapiens)	7.39
CC(/C=C/CC1(c2cc(C(C)(C)C)cc3c2CCC3(C)C)CC1)=C\C(=O)O	RXRα (Homo sapiens)	8.22
